Tested on: 616215-338-R-J1-PDC complex spheroids, viability % test/control
Assay: Anticancer human tumor 616215-338-R-J1-PDC patient-derived colon adenocarcinoma cell line growth inhibition [CLK]
Conditions: second compound 1 µM; first compound 0.316 µM; stronger effect = lower value
From the text: A high-throughput screen of multi-cell type tumor spheroids was designed to identify active combinations of […] and targeted small molecules. Complex spheroids include a stromal component modeled by human endothelial cells (HUVEC) and fibroblasts modeled by human mesenchymal stem cells (MSCs). […] Compounds. […] If the clinical Cmax for an agent had not been determined, the highest concentration tested was 10 microM. […]
Assay readout: viability, T/C (%)
# number only, unit % dropped from output

[[record]]
compound = "COc1ccc([C@@H](O)c2cc(-c3ncnc4cc(N5CCOCC5)ccc34)c(F)cc2Cl)nn1 + CNC(=O)c1ccc(Nc2nc(OC3CCCC3)c3c(-c4ccc5nc(C)oc5c4)c[nH]c3n2)c(OC)c1"
assay_readout = "viability, T/C"
test_value = 38.9

[[record]]
compound = "CC1COCCN1c1cc(C2(S(C)(=N)=O)CC2)nc(-c2ccnc3[nH]ccc23)n1 (stereo not given) + CNC(=O)c1ccc(Nc2nc(OC3CCCC3)c3c(-c4ccc5nc(C)oc5c4)c[nH]c3n2)c(OC)c1"
assay_readout = "viability, T/C"
test_value = 47

[[record]]
compound = "C=CC(=O)N1CCN(c2nc(=O)n(-c3c(C)ccnc3C(C)C)c3nc(-c4c(O)cccc4F)c(F)cc23)C(C)C1 (stereo not given) + CNC(=O)c1ccc(Nc2nc(OC3CCCC3)c3c(-c4ccc5nc(C)oc5c4)c[nH]c3n2)c(OC)c1"
assay_readout = "viability, T/C"
test_value = 50.4

[[record]]
compound = "CCCS(=O)(=O)Nc1ccc(F)c(C(=O)c2c[nH]c3ncc(-c4ccc(Cl)cc4)cc23)c1F + CNC(=O)c1ccc(Nc2nc(OC3CCCC3)c3c(-c4ccc5nc(C)oc5c4)c[nH]c3n2)c(OC)c1"
assay_readout = "viability, T/C"
test_value = 42.3

[[record]]
compound = "COc1c(OCCCN2CCOCC2)ccc2c3n(c(=NC(=O)c4cnc(N)nc4)nc12)CCN3 + CN1CCN(c2cc(C(=O)Nc3cc4cc(-c5cnn(C)c5)ccc4cn3)ccn2)CC1"
assay_readout = "viability, T/C"
test_value = 0.08

[[record]]
compound = "CCN1CCN(Cc2ccc(Nc3ncc(F)c(-c4cc(F)c5nc(C)n(C(C)C)c5c4)n3)nc2)CC1 + CNC(=O)c1ccc(Nc2nc(OC3CCCC3)c3c(-c4ccc5nc(C)oc5c4)c[nH]c3n2)c(OC)c1"
assay_readout = "viability, T/C"
test_value = 39.5

[[record]]
compound = "CCN1CCN(Cc2ccc(Nc3ncc(F)c(-c4cc(F)c5nc(C)n(C(C)C)c5c4)n3)nc2)CC1 + CN1CCN(c2cc(C(=O)Nc3cc4cc(-c5cnn(C)c5)ccc4cn3)ccn2)CC1"
assay_readout = "viability, T/C"
test_value = 2.07

[[record]]
compound = "C#Cc1c(F)ccc2cc(O)cc(-c3ncc4c(N5CC6CCC(C5)N6)nc(OCC56CCCN5CC(F)C6)nc4c3F)c12 (stereo not given) + CN1CCN(c2cc(C(=O)Nc3cc4cc(-c5cnn(C)c5)ccc4cn3)ccn2)CC1"
assay_readout = "viability, T/C"
test_value = 0.2


Data request: Which value of viability, T/C has been reported for CC(=O)O[C@H]1C(=O)[C@@]2(C)[C@H]([C@H](OC(=O)c3ccccc3)[C@]3(O)C[C@H](OC(=O)[C@H](O)[C@@H](NC(=O)c4ccccc4)c4ccccc4)C(C)=C1C3(C)C)[C@]1(OC(C)=O)CO[C@@H]1C[C@@H]2O + CNC(=O)c1ccc(Nc2nc(OC3CCCC3)c3c(-c4ccc5nc(C)oc5c4)c[nH]c3n2)c(OC)c1 in the records?
Data returned: 56.6

Data request: Name the recorded viability, T/C for Nc1ccn(C2OC(CO)C(O)C2(F)F)c(=O)n1 (stereo not given) + CNC(=O)c1ccc(Nc2nc(OC3CCCC3)c3c(-c4ccc5nc(C)oc5c4)c[nH]c3n2)c(OC)c1 .
Data returned: 16.9

Data request: Consider the compound shown here: CC(Nc1ccc2c(c1)OCCn1cc(N3C(=O)OCC3C(F)F)nc1-2)C(N)=O (stereo not given) + CNC(=O)c1ccc(Nc2nc(OC3CCCC3)c3c(-c4ccc5nc(C)oc5c4)c[nH]c3n2)c(OC)c1 What is its recorded viability, T/C?
Data returned: 26.4

Data request: Quick one: viability, T/C for COc1c(OCCCN2CCOCC2)ccc2c3n(c(=NC(=O)c4cnc(N)nc4)nc12)CCN3 + CNC(=O)c1ccc(Nc2nc(OC3CCCC3)c3c(-c4ccc5nc(C)oc5c4)c[nH]c3n2)c(OC)c1 ?
Data returned: 9.29

Data request: Entry under review: C=CC(=O)N1CCN(c2nc(=O)n(-c3c(C)ccnc3C(C)C)c3nc(-c4c(O)cccc4F)c(F)cc23)C(C)C1 (stereo not given) + CN1CCN(c2cc(C(=O)Nc3cc4cc(-c5cnn(C)c5)ccc4cn3)ccn2)CC1 . Reported viability, T/C?
Data returned: 0.21

Data request: Please give the measured viability, T/C for this compound: CCc1c2c(nc3ccc(O)cc13)-c1cc3c(c(=O)n1C2)COC(=O)[C@]3(O)CC + CNC(=O)c1ccc(Nc2nc(OC3CCCC3)c3c(-c4ccc5nc(C)oc5c4)c[nH]c3n2)c(OC)c1
Data returned: 11.8

Data request: Quick one: viability, T/C for CC1(C)CCC(CN2CCN(c3ccc(C(=O)NS(=O)(=O)c4ccc(NCC5CCOCC5)c([N+](=O)[O-])c4)c(Oc4cnc5[nH]ccc5c4)c3)CC2)=C(c2ccc(Cl)cc2)C1 + CNC(=O)c1ccc(Nc2nc(OC3CCCC3)c3c(-c4ccc5nc(C)oc5c4)c[nH]c3n2)c(OC)c1 ?
Data returned: 46.2

----------
system: 616215-338-R-J1-PDC complex spheroids, viability % test/control; assay: Anticancer human tumor 616215-338-R-J1-PDC cell line growth inhibition [CLK]; conditions: second compound 0.316 µM; first compound 10 µM; stronger effect = lower value;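 note: spheroids exposed to agents for 7 days; 100% = DMSO vehicle wells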
viability, T/C strictly under 20% means Y; at 20% or over means N.

See these solved cases before continuing.
[[record]]
compound = "C#Cc1c(F)ccc2cc(O)cc(-c3ncc4c(N5CC6CCC(C5)N6)nc(OCC56CCCN5CC(F)C6)nc4c3F)c12 (stereo not given) + CN1CCN(c2cc(C(=O)Nc3cc4cc(-c5cnn(C)c5)ccc4cn3)ccn2)CC1"
class_label = "Y"

[[record]]
compound = "Nc1ccccc1NC(=O)c1ccc(CNC(=O)OCc2cccnc2)cc1 + CNC(=O)c1ccc(Nc2nc(OC3CCCC3)c3c(-c4ccc5nc(C)oc5c4)c[nH]c3n2)c(OC)c1"
class_label = "Y"

[[record]]
compound = "O=C(c1cc(Cc2n[nH]c(=O)c3ccccc23)ccc1F)N1CCN(C(=O)C2CC2)CC1 + CNC(=O)c1ccc(Nc2nc(OC3CCCC3)c3c(-c4ccc5nc(C)oc5c4)c[nH]c3n2)c(OC)c1"
class_label = "N"

[[record]]
compound = "C=CC(=O)N1CCN(c2nc(=O)n(-c3c(C)ccnc3C(C)C)c3nc(-c4c(O)cccc4F)c(F)cc23)C(C)C1 (stereo not given) + CNC(=O)c1ccc(Nc2nc(OC3CCCC3)c3c(-c4ccc5nc(C)oc5c4)c[nH]c3n2)c(OC)c1"
class_label = "N"

[[record]]
compound = "O=C(c1cc(Cc2n[nH]c(=O)c3ccccc23)ccc1F)N1CCN(C(=O)C2CC2)CC1 + CN1CCN(c2cc(C(=O)Nc3cc4cc(-c5cnn(C)c5)ccc4cn3)ccn2)CC1"
class_label = "N"


Data request: Regarding CC1COCCN1c1cc(C2(S(C)(=N)=O)CC2)nc(-c2ccnc3[nH]ccc23)n1 (stereo not given) + CNC(=O)c1ccc(Nc2nc(OC3CCCC3)c3c(-c4ccc5nc(C)oc5c4)c[nH]c3n2)c(OC)c1 , kindly confirm whether its viability, T/C is beneath 20%.
Data returned: N

Data request: Answer whether the compound COc1cccc2c1C(=O)c1c(O)c3c(c(O)c1C2=O)CC(O)(C(=O)CO)CC3OC1CC(N)C(O)C(C)O1 (stereo not given) + CN1CCN(c2cc(C(=O)Nc3cc4cc(-c5cnn(C)c5)ccc4cn3)ccn2)CC1 has viability, T/C strictly less than 20%
Data returned: Y

Data request: In plain terms, does CC(=O)O[C@H]1C(=O)[C@@]2(C)[C@H]([C@H](OC(=O)c3ccccc3)[C@]3(O)C[C@H](OC(=O)[C@H](O)[C@@H](NC(=O)c4ccccc4)c4ccccc4)C(C)=C1C3(C)C)[C@]1(OC(C)=O)CO[C@@H]1C[C@@H]2O + CNC(=O)c1ccc(Nc2nc(OC3CCCC3)c3c(-c4ccc5nc(C)oc5c4)c[nH]c3n2)c(OC)c1 come in under 20% for viability, T/C?
Data returned: N

Data request: Find out if reported viability, T/C for CC1COCCN1c1cc(C2(S(C)(=N)=O)CC2)nc(-c2ccnc3[nH]ccc23)n1 (stereo not given) + CN1CCN(c2cc(C(=O)Nc3cc4cc(-c5cnn(C)c5)ccc4cn3)ccn2)CC1 is less than 20%
Data returned: Y

Data request: For this compound, is viability, T/C lower than 20%? CCCS(=O)(=O)Nc1ccc(F)c(C(=O)c2c[nH]c3ncc(-c4ccc(Cl)cc4)cc23)c1F + CN1CCN(c2cc(C(=O)Nc3cc4cc(-c5cnn(C)c5)ccc4cn3)ccn2)CC1
Data returned: Y
